Origin of the recorded values: patent US20260209334A1

# testTarget: T1, human IL-17F with C-terminal Avi-tag, biotinylated, immobilized on BLI sensors (human, UniProt Q96PD4 31-163, biotin on the C-terminal Avi-tag (BirA))
# T1 construct: also called biotinylated IL-17F; not shown: C-terminal Avi-tag
# T1 sequence: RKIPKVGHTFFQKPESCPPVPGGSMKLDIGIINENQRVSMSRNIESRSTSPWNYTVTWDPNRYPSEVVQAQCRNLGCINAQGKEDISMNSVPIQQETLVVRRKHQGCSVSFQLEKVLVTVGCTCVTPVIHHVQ
# methodNotes: BLI, biotinylated IL-17F immobilized, monovalent VHH as analyte; 2:1 heterogenous model, high affinity component
pKd: −log10 of the molar value.
parameterMeasured: pKd

Example entries and their recorded answers appear below.
binder	pKd
Bm42A03 (VHH, Class C, second generation) VHH: QVQLVESGGGLVQPGGSLRLSCVASGFTFSSFAMSWYRQDPGKERKLVAAITNDGGTTFYSDLVKGRFTISRDNTKNTVYLQMNNVKPDDAAVYYCMAVRGLYGSNWYDYPFELWGQGTQVTVSS	9.46
Bm44G07 (VHH, Class B, second generation) VHH: QVQLVQSGGGLVQTGGSLRLSCSVSGDISSQSAMGWYRQVPGRQRELVAMIHTTKGDTYYADSVKDRFTISRINANNTIHLQMNNLKPEDTAIYYCTHNEPGDLYMGQGTQVTVSS	9.00
Bm44B04 (VHH, Class B, second generation) VHH: QVQLVESGGGLVRTGGSLRLSCSVSGDISSQSAMGWYRQVPGRQRELVAMIHTTKGDTYYADSVKGRFTISRINANNTIYLQMNNLKPEDTAIYYCTHNEPGDLYMGQGTQVTVSS	9.46

(a) Bm44G10 (VHH, Class C, second generation) VHH: QVQLVESGGGLVQPGGSLRLSCVASGFTFSSFAMSWYRQDPGRERKLVAAITNDGGTTFYSDLVKGRFTISRDNTKNTVYLQMNNVKPDDAAVYYCMAVRGLYGSNWYDYPFELWGQGTQVTVSS
(b) Re42F08 (VHH, Class B, first generation) VHH: QVQLVESGGGLVKAGGSLRLSCVVSGHTSEISAMGWYRQAPGKQRELVALITSRSGDTHYSDSVKGRFSISRDNAKNTMYLQMNSLNPDDTAVYYCVHNEPGHLYMAQGTQVTVSS
Q: // pick min by pKd: a , b When you have decided, please share the label of that item.
Ans: b
